System: Amaranthus palmeri (AMAPA)
Assay: Post-emergence efficacy, Method A
Assay type: in vivo
Settings: Amaranthus palmeri, post-emergence, 312 h; Application Rate 500 g/Ha; evaluated after 13 days; Method A; read-out: Control of weed species after post-emergence application, AMAPA (100=total damage to plant; 0=no damage to plant)
Listing: pest or weed control at 500 g/ha of selected compounds
observation-type: pest or weed control at 500 g/ha (%)

compound | u | readout-value
O=c1[nH]c(-c2cc[n+](CCCS(=O)(=O)[O-])nc2)ncc1Cl | % | 30
N[C@@H](C[n+]1ccc(-c2ncccn2)cn1)C(=O)O [Compound A208, 2,2,2-trifluoroacetate] | % | 100
Cc1cnc(-c2cc[n+](CCC(=O)O)nc2)c(F)c1 | % | 90
Nc1cc(-c2cc[n+](CCC(=O)O)nc2)ccn1 | % | 70
CCOP(=O)(O)CCC[n+]1ccc(-c2ncccn2)cn1 | % | 100
COC(=O)CC[n+]1ccc(-c2ccncc2)cn1 | % | 100
O=P(O)(O)CCC[n+]1ccc(-c2ncccn2)cn1 | % | 100
O=S(=O)([O-])CCC[n+]1ccc(-c2ccc(-c3ccc(Cl)nn3)nn2)cn1 | % | 0
O=C(O)CC[n+]1ccc(-c2ncc(C(F)(F)F)cc2Cl)cn1 | % | 100
Nc1nccc(-c2cc[n+](CCC(=O)O)nc2)n1 | % | 100
N#Cc1ccc(-c2cc[n+](CCC(=O)O)nc2)nc1 | % | 40
O=C(O)CC[n+]1ccc(-c2ncc(CO)cn2)cn1 | % | 100
Nc1cc(-c2cc[n+](CCC(=O)O)nc2)ncn1 | % | 100
N#Cc1cnc(-c2cc[n+](CCS(=O)(=O)[O-])nc2)cn1 | % | 100
N[C@H](CC[n+]1ccc(-c2ccncn2)cn1)C(=O)O | % | 10
O=S(=O)([O-])N1CCCC1C[n+]1ccc(-c2ncccn2)cn1 (stereo not shown) | % | 80
O=S(=O)([O-])CC[n+]1ccc(-c2ncc(C(F)(F)F)cc2Cl)cn1 | % | 30
O=S(=O)([O-])CC[n+]1ccc(-c2ccc(C(F)(F)F)cn2)cn1 | % | 100
CCOP(=O)(C[n+]1ccc(-c2ncccn2)cn1)OCC [Compound A230, 2,2,2-trifluoroacetate] | % | 50

====

Test system: Ipomoea hederacea (IPOHE)
Test: Post-emergence efficacy, Method A
Type: in vivo
Settings: Ipomoea hederacea, post-emergence, 312 h, Application rate 500 g/Ha; evaluated after 13 days; 100=total damage to plant, 0=no damage to plant; read-out: Control of weed species after post-emergence application, IPOHE
Doc: threshold 50% (exclusive). Items with pest or weed control at 500 g/ha beneath it return label 1; others return label 0.

smiles-notation | system-tested | category-label
O=S(=O)([O-])CC[n+]1ccc(-c2ncc(C(F)(F)F)cn2)cn1 | Ipomoea hederacea (IPOHE) | label 0
O=S(=O)([O-])CC[n+]1ccc(-c2ccc(Cl)cn2)cn1 | Ipomoea hederacea (IPOHE) | label 1
Cc1cc(Cl)cnc1-c1cc[n+](CCS(=O)(=O)[O-])nc1 | Ipomoea hederacea (IPOHE) | label 1
Cc1cncc(-c2cc[n+](CCS(=O)(=O)[O-])nc2)n1 | Ipomoea hederacea (IPOHE) | label 1
Cc1nccc(-c2cc[n+](CCS(=O)(=O)[O-])nc2)n1 | Ipomoea hederacea (IPOHE) | label 0
CC(=O)c1ccnc(-c2cc[n+](CCS(=O)(=O)[O-])nc2)n1 | Ipomoea hederacea (IPOHE) | label 0
O=C([O-])CC[n+]1ccc(-c2nccc(C(F)(F)F)n2)cn1 | Ipomoea hederacea (IPOHE) | label 1
Cc1cc(C)nc(-c2cc[n+](CCS(=O)(=O)[O-])nc2)n1 | Ipomoea hederacea (IPOHE) | label 1
